assay: Single dose clinical study: plasma Compound A pharmacokinetics; assay type: in vivo, human; settings: human, plasma, po, 75 mg, plasma, healthy adults (Parts A,B), single oral 75 mg, fasted; read-out: AUC(0-t) GM
endpoint.label: AUC(0-t) (ng·h/mL)
API: value field is a number in ng·h/mL; no unit string.

Form field AUC(0-t), entry COc1ncc(C)c(-c2ccc3c(c2)[nH]c(=O)c2cnn([C@H]4CCOC4)c23)c1C : 9520

====

experiment: Single dose clinical study: plasma Compound A pharmacokinetics; assay type: in vivo, human; conditions: human, plasma, po, 1200 mg, plasma, healthy adults (Parts A,B), single oral 1200 mg, fasted; read-out: AUC(0-24 h) GM
endpoint.label: AUC(0-t)
Units required after the number.

Form field AUC(0-t), entry COc1ncc(C)c(-c2ccc3c(c2)[nH]c(=O)c2cnn([C@H]4CCOC4)c23)c1C : 28500 ng·h/mL

====

test: Single dose clinical study: plasma Compound A pharmacokinetics; assay type: in vivo, human; conditions: human, plasma, po, 400 mg, plasma, Japanese Subjects (Part D), single oral 400 mg; read-out: t1/2 Mean (SD) (converted)
endpoint.label: half-life (h)
API: value field is a number in h; no unit string.

Form field half-life, entry COc1ncc(C)c(-c2ccc3c(c2)[nH]c(=O)c2cnn([C@H]4CCOC4)c23)c1C : 30

====

assay: Single dose clinical study: plasma Compound A pharmacokinetics; format: in vivo, human; conditions: human, plasma, po, 25 mg, plasma, healthy adults (Parts A,B), single oral 25 mg, fasted; read-out: AUC(0-inf) GM
endpoint.label: AUC(0-inf) (ng·h/mL)
API: value field is a number in ng·h/mL; no unit string.

Form field AUC(0-inf), entry COc1ncc(C)c(-c2ccc3c(c2)[nH]c(=O)c2cnn([C@H]4CCOC4)c23)c1C : 4340

====

Assay: Single dose clinical study: plasma Compound A pharmacokinetics
Format: in vivo, human
Settings: human, plasma, oral, 100 mg, Fed, 100 mg, Part B; read-out: Cmax Geometric LS Means Test
Protocol: This was a single center, single dose, randomized, double blind, placebo controlled study in healthy subjects. It consisted of 4 parts: Parts A, B, C, and D. Each of the four study parts had 2 phases: Prerandomization Phase and Randomization Phase. The Prerandomization Phase lasted up to 30 days and consisted of a Screening Period and a Baseline Period, during which each subject's study eligibility was determined and baseline assessments were performed. […]
endpoint.label: Cmax (ng/mL)
API: value field is a number in ng/mL; no unit string.

Form field Cmax, entry COc1ncc(C)c(-c2ccc3c(c2)[nH]c(=O)c2cnn([C@H]4CCOC4)c23)c1C : 536

====

test: Multiple ascending dose study: plasma pharmacokinetics; format: in vivo; settings: human, po, 50 mg, Day 1, 50 mg QD oral, read-out: AUC(0-24 h) Median
endpoint.label: AUC(0-t) (ng·h/mL)
API: value field is a number in ng·h/mL; no unit string.

Form field AUC(0-t), entry COc1ncc(C)c(-c2ccc3c(c2)[nH]c(=O)c2cnn([C@H]4CCOC4)c23)c1C : 3060

====

assay: Multiple ascending dose study: plasma pharmacokinetics; format: in vivo; conditions: human, po, 25 mg, Day 1, 25 mg QD oral, read-out: AUC(0-24 h) GM (% CV)
endpoint.label: AUC(0-t) (ng·h/mL)
API: value field is a number in ng·h/mL; no unit string.

Form field AUC(0-t), entry COc1ncc(C)c(-c2ccc3c(c2)[nH]c(=O)c2cnn([C@H]4CCOC4)c23)c1C [Compound A] : 1650

Values from patent US20220378706A1
